// reported Nav1.5 current amplification rate (%) per item
target: human Nav1.5 (Homo sapiens); construct: expressed in transfected cells; host or cells: CHO-K1 (T-REx System, ThermoFisher Scientific); test: Amplification of Nav1.5-derived voltage-dependent sodium current (Nav1.5 current), cell line stably expressing human Nav1.5, automated patch clamp; type: cell-based; settings: 10 μmol/L compound; change of the area under the curve of Nav1.5 current (Test Result 1)
Sequence (Q14524 1-2015 isoform Q14524-2): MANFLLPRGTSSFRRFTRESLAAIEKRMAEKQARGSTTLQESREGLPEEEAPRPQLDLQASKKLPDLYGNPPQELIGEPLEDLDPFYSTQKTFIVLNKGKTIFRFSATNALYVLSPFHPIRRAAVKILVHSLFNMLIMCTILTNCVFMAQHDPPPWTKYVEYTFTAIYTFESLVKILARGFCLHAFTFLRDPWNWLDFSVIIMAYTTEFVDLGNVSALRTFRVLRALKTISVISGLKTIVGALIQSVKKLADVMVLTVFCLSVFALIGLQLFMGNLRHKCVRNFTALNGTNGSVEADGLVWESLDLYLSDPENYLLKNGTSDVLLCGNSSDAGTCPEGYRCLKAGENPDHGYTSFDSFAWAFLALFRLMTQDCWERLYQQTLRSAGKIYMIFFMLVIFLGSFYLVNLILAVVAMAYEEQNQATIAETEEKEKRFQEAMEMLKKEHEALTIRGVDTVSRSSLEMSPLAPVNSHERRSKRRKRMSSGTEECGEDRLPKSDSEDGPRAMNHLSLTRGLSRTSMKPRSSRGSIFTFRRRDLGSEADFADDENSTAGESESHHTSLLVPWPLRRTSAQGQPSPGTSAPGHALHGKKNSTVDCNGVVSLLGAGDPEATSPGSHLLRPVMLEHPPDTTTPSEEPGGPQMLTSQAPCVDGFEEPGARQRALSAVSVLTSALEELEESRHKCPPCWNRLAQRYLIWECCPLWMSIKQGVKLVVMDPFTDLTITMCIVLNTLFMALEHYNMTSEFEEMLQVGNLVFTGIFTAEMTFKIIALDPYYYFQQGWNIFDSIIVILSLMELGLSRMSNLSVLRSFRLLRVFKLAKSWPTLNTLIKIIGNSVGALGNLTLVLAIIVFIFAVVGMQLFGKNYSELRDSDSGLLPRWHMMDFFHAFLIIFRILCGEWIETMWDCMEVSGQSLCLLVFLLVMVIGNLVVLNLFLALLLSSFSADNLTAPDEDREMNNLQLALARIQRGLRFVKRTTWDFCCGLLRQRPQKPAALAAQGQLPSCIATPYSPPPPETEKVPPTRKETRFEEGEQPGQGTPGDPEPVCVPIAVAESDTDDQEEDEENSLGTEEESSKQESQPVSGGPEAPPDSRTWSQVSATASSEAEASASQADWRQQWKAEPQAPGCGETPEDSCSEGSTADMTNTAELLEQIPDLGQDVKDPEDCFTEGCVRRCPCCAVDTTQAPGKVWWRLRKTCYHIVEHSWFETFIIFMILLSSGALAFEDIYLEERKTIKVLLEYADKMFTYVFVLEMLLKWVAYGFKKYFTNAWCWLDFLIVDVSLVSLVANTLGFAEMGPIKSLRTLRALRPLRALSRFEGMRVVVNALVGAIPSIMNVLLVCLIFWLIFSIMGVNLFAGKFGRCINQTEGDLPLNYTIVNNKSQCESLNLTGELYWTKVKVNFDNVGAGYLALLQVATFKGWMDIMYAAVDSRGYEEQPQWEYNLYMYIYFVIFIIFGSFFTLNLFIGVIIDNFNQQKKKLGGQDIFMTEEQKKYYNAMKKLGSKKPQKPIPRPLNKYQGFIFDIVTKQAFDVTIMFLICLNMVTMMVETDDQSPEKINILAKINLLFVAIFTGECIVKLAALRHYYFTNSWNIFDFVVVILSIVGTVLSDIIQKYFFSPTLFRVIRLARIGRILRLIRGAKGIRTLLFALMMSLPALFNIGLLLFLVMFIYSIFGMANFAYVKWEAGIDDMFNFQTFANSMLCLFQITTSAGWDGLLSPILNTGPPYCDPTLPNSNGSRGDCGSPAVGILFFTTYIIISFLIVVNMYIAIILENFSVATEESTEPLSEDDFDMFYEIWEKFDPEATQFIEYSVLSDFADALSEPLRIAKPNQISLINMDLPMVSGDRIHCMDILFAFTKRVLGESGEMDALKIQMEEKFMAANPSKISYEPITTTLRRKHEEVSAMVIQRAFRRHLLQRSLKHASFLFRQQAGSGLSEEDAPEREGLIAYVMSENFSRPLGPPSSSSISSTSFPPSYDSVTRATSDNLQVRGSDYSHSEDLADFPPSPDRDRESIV

See these solved cases before continuing.
molecule	Nav1.5 current amplification rate (%)
COc1nc2cc(NC(=O)Cn3nc(C4=CCC(C)CC4)ccc3=O)ccc2o1 (racemic)	31%
COc1cc(C2=CCC(C(F)(F)F)CC2)nn(CC(=O)N2CCN(c3cncc(F)c3)CC2)c1=O (racemic)	8%

Exercise: Can you share its Nav1.5 current amplification rate (%)? I mean this molecule: CC1CCN(c2ccc(=O)n(CC(=O)Nc3ccnc(C#N)c3)n2)CC1
Solution: 11%

Exercise: Same thing, different molecule: CC1(C)CC=C(c2ccc(=O)n(CC(=O)N3CCc4c(OC5COC5)cccc43)n2)CC1
Solution: 31%

Exercise: Query CC1CCN(c2ccc(=O)n(CC(=O)Nc3cccc(-c4nccs4)c3)n2)CC1 next
Solution: -3%

Exercise: # iterate: Cc1ccc(-c2ccc(=O)n(CC(=O)N3CCc4cnccc43)n2)cc1
Solution: 26%

Exercise: // repeat for CC1CCN(c2ccc(=O)n(CC(=O)Nc3cncc(Cl)c3)n2)CC1 and report
Solution: 3%

Exercise: And what about the molecule CC1CCN(c2ccc(=O)n(CC(=O)N3CCc4cc(N5CCOCC5)ccc43)n2)CC1 ?
Solution: 34%

Exercise: Also CC1CCN(c2ccc(=O)n(CC(=O)Nc3ccc4c(c3)ncn4C)n2)CC1 ?
Solution: 4%

Exercise: Let us now turn to CC1CCN(c2ccc(=O)n(CC(=O)Nc3ccc(C(F)(F)F)nc3)n2)CC1
Solution: 56%

Exercise: What do you have for Cc1ccc(-c2ccc(=O)n(CC(=O)Nc3ccc4ocnc4c3)n2)cn1 ?
Solution: 2%

Exercise: Please do the same for CC1CCN(c2ccc(=O)n(CC(=O)Nc3ccc4oc(=O)[nH]c4c3)n2)CC1 as well.
Solution: 5%

Exercise: Try the molecule COc1cccc2c1CCN2C(=O)Cn1nc(C2=CCC(C)(C)CC2)ccc1=O
Solution: 3%

Exercise: Ok, now CC1CCN(c2ccc(=O)n(CC(=O)Nc3ccc4oc(N(C)C)nc4c3)n2)CC1
Solution: 9%

Exercise: For CC1(C)CC=C(c2ccc(=O)n(CC(=O)Nc3ccn4ccnc4c3)n2)CC1 then?
Solution: 60%

Exercise: Same lookup for Cc1ccc(N2CCN(C(=O)Cn3nc(C4=CCC(C)(C)CC4)ccc3=O)CC2)cn1 , please.
Solution: 1%

Exercise: Further, for CC1CCN(c2ccc(=O)n(CC(=O)Nc3ccn4nccc4c3)n2)CC1 ?
Solution: 13%

----------
molecular target: human Nav1.1 (Homo sapiens); construct: host or cells: HEK293; test: Amplification of Nav1.1-derived voltage-dependent sodium current (Nav1.1 current), cell line stably expressing human Nav1.1, automated patch clamp; assay type: cell-based; details: compound 3 μmol/L; HEK293 stably expressing human Nav1.1
endpoint: Nav1.1 current amplification rate (%)
# number only, unit % dropped from output

molecule	observed value
CC1CC=C(c2ccc(=O)n(CC(=O)N3CC=C(c4ccccc4)CC3)n2)CC1 (racemic)	45

Here's the next entry for you.
Exercise: Bench note: what Nav1.1 current amplification rate (%) did CC1CC=C(c2ccc(=O)n(CC(=O)N3CCc4c(-c5cn[nH]c5)cccc43)n2)CC1 (racemic) show?
Solution: 309
